# Species: Rattus norvegicus
# experiment: DrugMatrix - Regimen: Daily Repeat
# Format: toxicity, organism-based, Sprague-Dawley
# Design: regimen Daily Repeat, gender Male, age 6-8 weeks
# test-conditions: in vivo, po, 0 mg/kg, 120 h, tissue Plasma, route oral GAVAGE, dose level Control, time 5 day, vehicle 100 % WATER
quantity: CARBON DIOXIDE (mmol/L)
One number for each entry, in mmol/L.

Below: 4 compounds and their reported CARBON DIOXIDE.
{"columns": ["compound", "CARBON DIOXIDE [mmol/L]"],
 "data": [
  ["CS(=O)(=O)c1ccc([C@@H](O)[C@@H](CO)NC(=O)C(Cl)Cl)cc1", 27.33],
  ["Cn1c(=O)c2[nH]cnc2n(C)c1=O.O", 26.5],
  ["CN(C)CCOC(c1ccccc1)c1ccccc1 [DIPHENHYDRAMINE]", 27.17],
  ["CC(C)(C)CC(C)(C)c1ccc(OCCOCC[N+](C)(C)Cc2ccccc2)cc1.[Cl-] [BENZETHONIUM CHLORIDE]", 27.17]
]}

Now let's try a different one.
Incoming: Tell us which CARBON DIOXIDE value is on record for `CN(C)CC[C@@H](c1ccc(Cl)cc1)c1ccccn1`
Outgoing: 33.83

----------
# Species on record: Rattus norvegicus
# experiment: DrugMatrix - Regimen: Daily Repeat
# Type: toxicity, organism-based, Sprague-Dawley
# Set-up: regimen Daily Repeat, gender Male, age 6-8 weeks
# test-conditions: in vivo, sc, 0 mg/kg, 120 h, tissue Plasma, route subcutaneous, dose level Control, time 5 day, […]
quantity: CHLORIDE (MEQ/L)
Numbers only, in MEQ/L.

{"columns": ["compound", "measurement-units", "CHLORIDE"],
 "data": [
  ["O=C(Nc1ccc(Br)cc1)c1cc(Br)cc(Br)c1O", "MEQ/L", 105.17]
]}

Go through the list and state CHLORIDE for each entry.
1. CC(C)(C)CC(C)(C)c1ccc(OCCOCC[N+](C)(C)Cc2ccccc2)cc1.[Cl-] [BENZETHONIUM CHLORIDE]
2. Oc1c(Cl)cc(Cl)c(Cl)c1Cc1c(O)c(Cl)cc(Cl)c1Cl

Outgoing:
1. 102.33
2. 102.33

----------
# Organism: Rattus norvegicus
# experiment: DrugMatrix - Regimen: Daily Repeat
# Type: toxicity, organism-based, Sprague-Dawley
# Parameters: regimen Daily Repeat, gender Male, age 6-8 weeks
# test-conditions: in vivo, po, 0 mg/kg, 120 h, tissue Blood, route oral GAVAGE, dose level Control, time 5 day, vehicle .5 % CMC
quantity: MONOCYTE (%)
Give bare numbers, in %.

Go through the list and state MONOCYTE for each entry.
1. CCN(CC)CCOc1ccc(/C(=C(/Cl)c2ccccc2)c2ccccc2)cc1
2. C[C@H]1O[C@@H](n2cc(F)c(=O)[nH]c2=O)[C@H](O)[C@@H]1O
3. Cn1c(=O)c2c(ncn2CC(O)CO)n(C)c1=O (centres undefined)
4. O=C1Nc2ccc(Cl)cc2C(c2ccccc2Cl)=NC1O (centres undefined)

Outgoing:
0.17
1.83
1.17
0.83
